Measured values drawn from patent US9850283B2 for this set.

Target desc: Human PD-L1/PD-1 (Homo sapiens, UniProt Q9NZQ7)
Construct: made in house; host or cells: HEK293T
Sequence (Q9NZQ7 with tags, fused parts or gaps): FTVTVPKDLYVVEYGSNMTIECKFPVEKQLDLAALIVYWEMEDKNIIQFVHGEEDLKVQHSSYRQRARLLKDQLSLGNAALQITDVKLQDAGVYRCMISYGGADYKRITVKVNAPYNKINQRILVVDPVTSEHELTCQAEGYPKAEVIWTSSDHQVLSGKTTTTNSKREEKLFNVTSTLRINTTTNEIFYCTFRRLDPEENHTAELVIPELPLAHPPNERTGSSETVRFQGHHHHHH
Measurement description: HTRF PD-1-Ig/PD-L1-His binding assay (human PD-L1)
Stated conditions: cluster symbol; read-out: HTRF IC50 cluster
Positions of bridges follow the written chain, without caps; N, C: chain ends. Non-standard residues stand in square brackets, D forms with d. Residues, ends and D or L forms follow the SMILES beside them. NMeNle = CCCC[C@H](NC)C(=O)O; NMeA = CN[C@@H](C)C(=O)O; Dap = NC[C@H](N)C(=O)O

Compound	IC50
CCCC[C@H]1C(=O)N(C)[C@@H](CCCC)C(=O)N[C@@H](CCCNC(=N)N)C(=O)N[C@H](C(=O)NCC(N)=O)CSCC(=O)N[C@@H](Cc2ccc(O)cc2)C(=O)N(C)[C@@H](C)C(=O)N[C@@H](CC(N)=O)C(=O)N2CCC[C@H]2C(=O)N[C@@H](CN)C(=O)N[C@@H](CC(C)C)C(=O)N2CCC[C@H]2C(=O)N[C@@H](Cc2c[nH]c3ccccc23)C(=O)N[C@@H](CO)C(=O)N[C@@H](Cc2c[nH]c3ccccc23)C(=O)N1C [Example 1113] ({CH2CO}-Y[NMeA]NP[Dap]LPWSW[NMeNle][NMeNle]RCG-NH2; thioether N-14)	0.385 to 6.74 nM

----------
Target desc: LK35.2-hPD-L1 cells / PE-labeled PD-1-Ig (Homo sapiens, UniProt Q9NZQ7)
Construct: expressed in transfected cells; host or cells: LK35.2 mouse B cell line
Sequence (Q9NZQ7 19-290): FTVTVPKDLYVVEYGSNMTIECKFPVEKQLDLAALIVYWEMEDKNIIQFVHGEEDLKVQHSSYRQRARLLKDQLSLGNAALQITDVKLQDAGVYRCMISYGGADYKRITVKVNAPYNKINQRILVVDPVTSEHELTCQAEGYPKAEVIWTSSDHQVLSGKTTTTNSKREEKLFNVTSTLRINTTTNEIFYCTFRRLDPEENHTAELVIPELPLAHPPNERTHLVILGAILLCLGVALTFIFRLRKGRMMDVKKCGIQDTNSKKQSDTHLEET
Measurement description: LK35.2-hPD-L1 cell binding high-content screening assay
Assay type: cell-based
Stated conditions: cell binding assay, cell line not given; cluster symbol; read-out: CBA IC50 cluster
pIC50: −log10 of the molar value. Positions of bridges follow the written chain, without caps; N, C: chain ends. Non-standard residues stand in square brackets, D forms with d. Residues, ends and D or L forms follow the SMILES beside them. ξ: configuration not given here. Bta = N[C@@H](Cc1csc2ccccc12)C(=O)O; Hyp = O=C(O)[C@@H]1C[C@@H](O)CN1; NMeNle = CCCC[C@H](NC)C(=O)O; NMeM = CN[C@@H](CCSC)C(=O)O; NMeA = CN[C@@H](C)C(=O)O; Dab = NCC[C@H](N)C(=O)O; Dap = NC[C@H](N)C(=O)O; ξC = NC(CS)C(=O)O
pIC50 overview
Experimental readout: pIC50

Compound	Target desc	Observed
CCCC[C@H]1C(=O)N(C)[C@@H](COc2cccc(C)c2)C(=O)N[C@@H](CCN)C(=O)N[C@H](C(=O)NCC(N)=O)CSCC(=O)N[C@@H](Cc2ccc(O)cc2)C(=O)N(C)[C@@H](C)C(=O)N[C@@H](CC(=O)O)C(=O)N2CCC[C@H]2C(=O)N[C@@H](CN)C(=O)N[C@@H](CCC(=O)O)C(=O)N2C[C@H](O)C[C@H]2C(=O)N[C@@H](Cc2c[nH]c3ccccc23)C(=O)N[C@@H](CO)C(=O)N[C@@H](Cc2c[nH]c3ccccc23)C(=O)N1C	LK35.2-hPD-L1 cells / PE-labeled PD-1-Ig (Homo sapiens, UniProt Q9NZQ7)	7.14 to 8.32
CCCC[C@H]1C(=O)N(C)[C@@H](CCSC)C(=O)N[C@@H](C)C(=O)NC(C(=O)NCC(N)=O)CSCC(=O)N[C@@H](Cc2ccc(O)cc2)C(=O)N(C)[C@@H](C)C(=O)N[C@@H](CC(N)=O)C(=O)N2CCC[C@H]2C(=O)N[C@@H](CN)C(=O)N[C@@H](CC(C)C)C(=O)N2CCC[C@H]2C(=O)N[C@@H](Cc2c[nH]c3ccccc23)C(=O)N[C@@H](CO)C(=O)N[C@@H](Cc2csc3ccccc23)C(=O)N1C (stereo partly shown) [Example 9086] ({CH2CO}-Y[NMeA]NP[Dap]LPWS[Bta][NMeNle][NMeM]A[ξC]G-NH2; thioether N-14)	LK35.2-hPD-L1 cells / PE-labeled PD-1-Ig (Homo sapiens, UniProt Q9NZQ7)	8.33 to 9.80
CCCC[C@H]1C(=O)N(C)[C@@H](CCCC)C(=O)N[C@@H](CCCNC(=N)N)C(=O)NC(C(=O)N[C@@H](CO)C(N)=O)CSCC(=O)N[C@@H](Cc2ccc(O)cc2)C(=O)N(C)[C@@H](C)C(=O)N[C@@H](CC(N)=O)C(=O)N2CCC[C@H]2C(=O)N[C@@H](Cc2cnc[nH]2)C(=O)N[C@@H](CC(C)C)C(=O)N2CCC[C@H]2C(=O)N[C@@H](Cc2c[nH]c3ccccc23)C(=O)N[C@@H](CO)C(=O)N[C@@H](Cc2c[nH]c3ccccc23)C(=O)N1C (stereo partly shown) [Example 9037] ({CH2CO}-Y[NMeA]NPHLPWSW[NMeNle][NMeNle]R[ξC]S-NH2; thioether N-14)	LK35.2-hPD-L1 cells / PE-labeled PD-1-Ig (Homo sapiens, UniProt Q9NZQ7)	8.33 to 9.80
CCCC[C@H]1C(=O)N(C)[C@@H](CCCC)C(=O)N[C@@H](CCCNC(=N)N)C(=O)N[C@H](C(=O)NCC(N)=O)CSCC(=O)N[C@@H](Cc2ccc(O)cc2)C(=O)N(C)[C@@H](C)C(=O)N[C@@H](CCN)C(=O)N2CCC[C@H]2C(=O)N[C@@H](CO)C(=O)N[C@@H](CCC(=O)O)C(=O)N2C[C@H](O)C[C@H]2C(=O)N[C@@H](Cc2c[nH]c3ccccc23)C(=O)N[C@@H](CO)C(=O)N[C@@H](Cc2c[nH]c3ccccc23)C(=O)N1C [Example 5130] ({CH2CO}-Y[NMeA][Dab]PSE[Hyp]WSW[NMeNle][NMeNle]RCG-NH2; thioether N-14)	LK35.2-hPD-L1 cells / PE-labeled PD-1-Ig (Homo sapiens, UniProt Q9NZQ7)	8.33 to 9.80

----------
Target desc: LK35.2-hPD-L1 cells / PE-labeled PD-1-Ig (Homo sapiens, UniProt Q9NZQ7)
Construct: expressed in transfected cells; host or cells: LK35.2 mouse B cell line
Measurement description: LK35.2-hPD-L1 cell binding high-content screening assay
Type: cell-based
Stated conditions: cell binding assay, cell line not given; cluster symbol; read-out: CBA IC50 cluster
Positions of bridges follow the written chain, without caps; N, C: chain ends. Non-standard residues stand in square brackets, D forms with d. Residues, ends and D or L forms follow the SMILES beside them. ξ: configuration not given here. Bta = N[C@@H](Cc1csc2ccccc12)C(=O)O; Hyp = O=C(O)[C@@H]1C[C@@H](O)CN1; NMeNle = CCCC[C@H](NC)C(=O)O; NMeM = CN[C@@H](CCSC)C(=O)O; NMeS = CN[C@@H](CO)C(=O)O; NMeA = CN[C@@H](C)C(=O)O; Dap = NC[C@H](N)C(=O)O; ξC = NC(CS)C(=O)O

Compound	Target desc	IC50
CCCC[C@H]1C(=O)N(C)[C@@H](CCCC)C(=O)N[C@@H](CCCNC(=N)N)C(=O)NC(C(=O)NCC(N)=O)CSCC(=O)N[C@@H](Cc2ccc(O)cc2)C(=O)N(C)[C@@H](C)C(=O)N[C@@H](CC(N)=O)C(=O)N2CCC[C@H]2C(=O)N[C@@H](Cc2cnc[nH]2)C(=O)N[C@@H](CC(C)C)C(=O)N2[C@@H](C)CC[C@H]2C(=O)N[C@@H](Cc2c[nH]c3ccccc23)C(=O)N[C@@H](CO)C(=O)N[C@@H](Cc2c[nH]c3ccccc23)C(=O)N1C (stereo partly shown) [Example 9014]	LK35.2-hPD-L1 cells / PE-labeled PD-1-Ig (Homo sapiens, UniProt Q9NZQ7)	0.158 to 4.71 nM
CCCC[C@H]1C(=O)N[C@@H](CCCNC(=N)N)C(=O)NC(C(=O)NCC(N)=O)CSCC(=O)N[C@@H](Cc2ccc(O)cc2)C(=O)N(C)[C@@H](C)C(=O)N[C@@H](CC(N)=O)C(=O)N2CCC[C@H]2C(=O)N[C@@H](Cc2cnc[nH]2)C(=O)N[C@@H](CC(C)C)C(=O)N2C[C@H](O)C[C@H]2C(=O)N[C@@H](Cc2c[nH]c3ccccc23)C(=O)N[C@@H](CO)C(=O)N[C@@H](Cc2c[nH]c3ccccc23)C(=O)N(C)[C@@H](COCC)C(=O)N1C (stereo partly shown) [Example 9046]	LK35.2-hPD-L1 cells / PE-labeled PD-1-Ig (Homo sapiens, UniProt Q9NZQ7)	0.158 to 4.71 nM
CCCC[C@H]1C(=O)N(C)[C@@H](COCC)C(=O)N[C@@H](CCCNC(=N)N)C(=O)NC(C(=O)NCC(N)=O)CSCC(=O)N[C@@H](Cc2ccc(O)cc2)C(=O)N(C)[C@@H](C)C(=O)N[C@@H](CC(N)=O)C(=O)N2CCC[C@H]2C(=O)N[C@@H](Cc2cnc[nH]2)C(=O)N[C@@H](CC(C)C)C(=O)N2CCC[C@H]2C(=O)N[C@@H](Cc2c[nH]c3ccccc23)C(=O)N[C@@H](CO)C(=O)N[C@@H](Cc2csc3ccccc23)C(=O)N1C (stereo partly shown) [Example 9040] ({CH2CO}-Y[NMeA]NPHLPWS[Bta][NMeNle][NMeS](Et)R[ξC]G-NH2; thioether N-14)	LK35.2-hPD-L1 cells / PE-labeled PD-1-Ig (Homo sapiens, UniProt Q9NZQ7)	0.158 to 4.71 nM
CCCC[C@H]1C(=O)N(C)[C@@H](CCSC)C(=O)N[C@@H](C)C(=O)NC(C(=O)NCC(N)=O)CSCC(=O)N[C@@H](Cc2ccc(O)cc2)C(=O)N(C)[C@@H](C)C(=O)N[C@@H](CC(N)=O)C(=O)N2CCC[C@H]2C(=O)N[C@@H](CN)C(=O)N[C@@H](CC(C)C)C(=O)N2C[C@H](O)C[C@H]2C(=O)N[C@@H](Cc2c[nH]c3ccccc23)C(=O)N[C@@H](CO)C(=O)N[C@@H](Cc2csc3ccccc23)C(=O)N1C (stereo partly shown) [Example 9088] ({CH2CO}-Y[NMeA]NP[Dap]L[Hyp]WS[Bta][NMeNle][NMeM]A[ξC]G-NH2; thioether N-14)	LK35.2-hPD-L1 cells / PE-labeled PD-1-Ig (Homo sapiens, UniProt Q9NZQ7)	0.158 to 4.71 nM
